# Assayed target: NPEPPS (Homo sapiens)
# Construct: endogenous in cells
# Sequence (P55786 whole entry): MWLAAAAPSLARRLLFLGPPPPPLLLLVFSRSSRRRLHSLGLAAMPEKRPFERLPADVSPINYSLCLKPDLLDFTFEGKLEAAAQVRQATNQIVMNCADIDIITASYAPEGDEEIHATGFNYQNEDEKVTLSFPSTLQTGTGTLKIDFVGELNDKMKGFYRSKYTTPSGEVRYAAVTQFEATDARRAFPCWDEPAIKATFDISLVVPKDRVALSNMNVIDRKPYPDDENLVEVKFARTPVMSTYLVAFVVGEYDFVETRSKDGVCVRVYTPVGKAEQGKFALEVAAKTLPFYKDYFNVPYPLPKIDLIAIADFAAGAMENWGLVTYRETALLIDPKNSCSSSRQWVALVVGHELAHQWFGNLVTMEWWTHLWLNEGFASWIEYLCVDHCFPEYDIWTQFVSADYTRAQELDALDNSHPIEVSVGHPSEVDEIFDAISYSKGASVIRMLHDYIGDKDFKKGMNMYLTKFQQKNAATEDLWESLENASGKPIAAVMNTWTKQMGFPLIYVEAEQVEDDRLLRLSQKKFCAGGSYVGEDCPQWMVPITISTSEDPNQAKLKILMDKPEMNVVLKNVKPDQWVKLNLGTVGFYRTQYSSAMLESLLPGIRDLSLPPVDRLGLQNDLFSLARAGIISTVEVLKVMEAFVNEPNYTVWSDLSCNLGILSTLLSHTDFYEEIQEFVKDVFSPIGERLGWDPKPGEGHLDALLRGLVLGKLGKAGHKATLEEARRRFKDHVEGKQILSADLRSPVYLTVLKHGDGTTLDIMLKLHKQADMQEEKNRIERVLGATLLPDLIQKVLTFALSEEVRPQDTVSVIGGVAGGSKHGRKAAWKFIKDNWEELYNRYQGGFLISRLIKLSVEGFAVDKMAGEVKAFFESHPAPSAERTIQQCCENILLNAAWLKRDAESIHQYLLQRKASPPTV
# Method description: Cell-based NPEPPS activity assay (Q-AMC fluorescence)
# Cond: log10 transformed; EC50 = concentration that elevates 50% NPEPPS activity (150% of DMSO baseline); HEK293T cells
Recorded endpoint: EC50
Note: state the figure and append the unit.

QUERY: What does the data say about its EC50? Entry: `Clc1ccc(CNc2nsc3ccccc23)cc1`
RESULT: 69.2 µM

QUERY: What does the data say about its EC50? Entry: `Clc1ccc(COc2ccc(CNc3nsc4ccc(OCc5ccccc5)cc34)cc2)cc1`
RESULT: 5.5 µM

QUERY: What does the data say about its EC50? Entry: `FC(F)(F)c1ccc(CN(CC2CC2)c2nsc3ccccc23)cc1`
RESULT: 5.5 µM

QUERY: What does the data say about its EC50? Entry: `CN(Cc1ccc(SC(F)(F)F)cc1)c1nsc2ccccc12`
RESULT: 2.63 µM

QUERY: What does the data say about its EC50? Entry: `Fc1ccc2snc(NCc3ccc(OCc4ccccc4)cc3)c2c1`
RESULT: 63.1 µM

---

# System: HEK293T cells
# Method description: Cell viability assay (CellTiter Glo)
# Assay type: cell-based, human
# Cond: ratio of IC50 (cell viability) over EC50 (NPEPPS activity)
API: label(entry) gives y if the entry's Therapeutic index is strictly smaller than 3; on equality or larger values it gives n.

QUERY: hey, is Therapeutic index for FC(F)(F)c1ccc(CNc2nsc3cnccc23)cc1 [JMM065] lower than 3 or not?
RESULT: n

QUERY: hey, is Therapeutic index for c1ccc2c(NCc3ccc4c(c3)OCCO4)nsc2c1 [JMM017] lower than 3 or not?
RESULT: y

QUERY: hey, is Therapeutic index for COC(=O)c1ccc(CNc2nsc3ccccc23)cc1 [JMM024] lower than 3 or not?
RESULT: y

QUERY: hey, is Therapeutic index for COc1ccc(CNc2nsc3ccc(OCc4ccccc4)cc23)cc1 [JMM099] lower than 3 or not?
RESULT: y

QUERY: hey, is Therapeutic index for c1ccc(COc2ccc3snc(NCc4ccc(Oc5ccccc5)cc4)c3c2)cc1 [JMM115] lower than 3 or not?
RESULT: n

QUERY: hey, is Therapeutic index for c1ccc2c(NCc3ccncc3)nsc2c1 [JMM012] lower than 3 or not?
RESULT: y

QUERY: hey, is Therapeutic index for c1ccc(CNc2nsc3ccccc23)cc1 [JMM009] lower than 3 or not?
RESULT: y

QUERY: hey, is Therapeutic index for CN(Cc1ccc(Cl)c(Cl)c1)c1nsc2ccc(OCc3ccccc3)cc12 [JMM093] lower than 3 or not?
RESULT: n

QUERY: hey, is Therapeutic index for Fc1ccc2snc(NCc3ccc(C(F)(F)F)cc3)c2c1 [JMM139] lower than 3 or not?
RESULT: y

QUERY: hey, is Therapeutic index for FC(F)(F)Sc1ccc(CNc2nsc3ccccc23)cc1 [JMM081] lower than 3 or not?
RESULT: n

QUERY: hey, is Therapeutic index for CCCCCCN(Cc1ccc(C(F)(F)F)cc1)c1nsc2ccccc12 [JMM136] lower than 3 or not?
RESULT: y

QUERY: hey, is Therapeutic index for Clc1ccc(COc2ccc(CNc3nsc4ccc(OCc5ccccc5)cc34)cc2)cc1 [JMM112] lower than 3 or not?
RESULT: n
